system: OVCAR8; assay: drug sensitivity score (DSS2) on cancer cell count; higher = more sensitive; extreme values may be limits of the assay; details: co-cultured fibroblast: WI38; 72 h
molecules and their reported drug sensitivity score
ENDPOINT LABEL: drug sensitivity score (DSS)

| MOLECULE SMILES | UNIT SPEC | RESULT NUMBER |
| --- | --- | --- |
| COc1cc(Br)c(Nc2nc(-c3c(C)nc4ncccn34)cs2)c(Br)c1 | DSS | 3.1 |
| COCCNCc1ccc(-c2cc3nccc(Oc4ccc(NC(=O)C5(C(=O)Nc6ccc(F)cc6)CC5)cc4F)c3s2)nc1 | DSS | 1.6 |
| Cc1noc2c1-c1ccccc1C(c1ccc(Cl)cc1)=N[C@H]2CC(N)=O | DSS | 6.5 |
| CCn1c(-c2nonc2N)nc2cnc(Oc3cccc(NC(=O)c4ccc(OCCN5CCOCC5)cc4)c3)cc21 | DSS | 31.2 |
